The origin of these recorded values is patent US20240116946A1.

test system: SARS-CoV-2-NLuc; assay: microbe, parasite or virus in culture; type: cell-based, SARS Coronavirus 2; details: Severe acute respiratory syndrome coronavirus, 48 h; read-out: MPro EC50
In plain terms, low EC50, meaning strictly below 400 nM, gives criterion met, and everything else gives criterion not met.

{"columns": ["Molecule", "Class Assignment"],
 "data": [
  ["COc1cc(-c2cc3c(s2)c(=O)n(-c2cncc(C#N)c2)c(=O)n3CCC#N)c(Cl)cc1F [Example 1040]", "criterion met"]
]}

## Task Given COc1ccc(C#N)c(-c2ccc3c(=O)n(-c4cncc5cccnc45)c(=O)[nH]c3c2)c1 [Example 218] , is recorded EC50 strictly lower than 400 nM?
## Result criterion met

## Task Given Cc1nnc(-c2cccc(-c3ccc4c(=O)n(-c5cncc6ccccc56)c(=O)[nH]c4c3)c2)o1 [Example 39] , is recorded EC50 strictly lower than 400 nM?
## Result criterion not met

## Task Given COc1cc(-c2nc3[nH]c(=O)n(-c4cncc5ccccc45)c(=O)c3s2)c(Cl)cc1F [Example 704] , is recorded EC50 strictly lower than 400 nM?
## Result criterion met

###

target: recombinant SARS-CoV-2 Main protease (Mpro) (Severe acute respiratory syndrome coronavirus 2 (2019-nCoV) (SARS-CoV-2)); test: Cov Mpro Biochemical IC50 Assay; settings: recombinant SARS-CoV-2 Mpro, fluorogenic peptide substrate; read-out: MPro IC50
Below, each entry is listed with its recorded pIC50.
Schema: pIC50 number; meaning minus log10 of the concentration expressed in molar units.

Examples with answers:
{"columns": ["Molecule", "pIC50"],
 "data": [
  ["CN1C(=O)CCc2cc(-c3cccc(Cl)c3-c3ccc4c(=O)n(-c5cncc6ccccc56)c(=O)[nH]c4c3)ccc21 [Example 307]", 7.77],
  ["COc1ccc(Cl)c(-c2cc3[nH]c(=O)n(-c4cncc5ccc(N6CC(F)(F)OC(F)(F)C6)cc45)c(=O)c3s2)c1 [Example 229]", 7.65],
  ["Cc1cc2c(=O)n(-c3cncc4ccccc34)c(=O)[nH]c2cc1-c1ccccc1Cl [Example 81]", 6.64]
]}

For C#Cc1cccc(Cl)c1-c1ccc2c(=O)n(-c3cncc4ccccc34)c(=O)[nH]c2c1 [Example 159] the molecule record lists pIC50 as 6.01

###

biological target: recombinant SARS-CoV-2 Main protease (Mpro) (Severe acute respiratory syndrome coronavirus 2 (2019-nCoV) (SARS-CoV-2)); assay: Cov Mpro Biochemical IC50 Assay; details: recombinant SARS-CoV-2 Mpro 7.5 nM, fluorogenic peptide substrate 40 μM; read-out: MPro IC50
Below, each entry is listed with its recorded pIC50.
Schema: pIC50 number; meaning minus log10 of the concentration expressed in molar units.

For Cc1cc(Cl)c(-c2cc3c(s2)c(=O)n(-c2cncc4cnn(C)c24)c(=O)n3CCC#N)cc1Cl the compound record lists pIC50 as 8.01

For COc1cc(-c2cc3c(s2)c(=O)n(-c2cncc4c2c(C)nn4C)c(=O)n3CCC#N)c(Cl)cc1F [Example 925] the compound record lists pIC50 as 8.21

For COc1cc(-c2cc3c(s2)c(=O)n(-c2cncc4[nH]nc(C)c24)c(=O)n3CCC#N)c(Cl)cc1F (single isomer, unassigned) [Example 960] the compound record lists pIC50 as 7.10

For Cn1ncc2cncc(-n3c(=O)[nH]c4cc(-c5cc(F)ccc5Cl)sc4c3=O)c21 the compound record lists pIC50 as 7.84

###

target: recombinant SARS-CoV-2 Main protease (Mpro) (Severe acute respiratory syndrome coronavirus 2 (2019-nCoV) (SARS-CoV-2)); experiment: Cov Mpro Biochemical IC50 Assay; conditions: recombinant SARS-CoV-2 Mpro 7.5 nM, fluorogenic peptide substrate 40 μM; read-out: MPro IC50
Below, each entry is listed with its recorded IC50.
API: value field is a number in nM; no unit string.

Examples with answers:
{"columns": ["Compound", "Measured Result"],
 "data": [
  ["COc1ccc(C#N)c(-c2cc3[nH]c(=O)n(-c4cncc5c(Cl)cccc45)c(=O)c3s2)c1", 883],
  ["COc1cc(-c2cc3c(s2)c(=O)n(-c2cncc4cnn(C)c24)c(=O)n3CCC#N)c(C)cc1F", 7.27]
]}

For COc1ccc(C#N)c(-c2cc3[nH]c(=O)n(-c4cncc5cnccc45)c(=O)c3s2)c1 the compound record lists IC50 as 20.9

For COc1cc(-c2cc3c(s2)c(=O)n(-c2cncc4cnn(C)c24)c(=O)n3CC(C)(C)C#N)c(Cl)cc1F the compound record lists IC50 as 9.01

For Cn1nnc2cncc(-n3c(=O)c4sc(-c5ccc(F)cc5Cl)cc4n(CCC#N)c3=O)c21 (single isomer, unassigned) [Example 1029] the compound record lists IC50 as 582

For N#CCCn1c(=O)n(-c2cncc(F)c2)c(=O)c2sc(-c3ccccc3C#N)cc21 the compound record lists IC50 as 53.2

For COCCn1ncc2cncc(-n3c(=O)c4sc(-c5cc(OC)c(F)cc5Cl)cc4n(CCC#N)c3=O)c21 the compound record lists IC50 as 4.9

For COc1cnc(Cl)c(-c2cc3c(s2)c(=O)n(-c2cncc4ccccc24)c(=O)n3CCC#N)c1 [Example 942] the compound record lists IC50 as 12

For COc1ccc(C#N)c(-c2cc3[nH]c(=O)n(-c4cncc5ccc(N6CCOCC6)cc45)c(=O)c3s2)c1 the compound record lists IC50 as 7.8

For COc1cc(-c2cc3[nH]c(=O)n(-c4cncc5cccnc45)c(=O)c3s2)c(C#N)cc1F the compound record lists IC50 as 9.91

For Cn1ncc2cncc(-n3c(=O)c4sc(C5C(Cl)=CC(Cl)=C6OCCC65)cc4n(CCC#N)c3=O)c21 (stereo not shown) the compound record lists IC50 as 15.5

For COc1ccc(Cl)c(-c2ccc3c(=O)n(-c4cncc5ccc(N6CC7(CNC(=O)C7)C6)cc45)c(=O)[nH]c3c2)c1 the compound record lists IC50 as 8.93

For COc1cc(-c2cc3c(s2)c(=O)n(-c2cncc4cnn(C5CC5)c24)c(=O)n3CC#N)c(Cl)cc1F the compound record lists IC50 as 3.07

For O=c1[nH]c2cc(-c3c(Cl)cccc3-c3cnn4c3COCC4)sc2c(=O)n1-c1cncc2ccccc12 the compound record lists IC50 as 4.05

For COc1cc(-c2cc3[nH]c(=O)n(-c4cncc5cnn(CC(F)(F)F)c45)c(=O)c3s2)c(Cl)cc1F the compound record lists IC50 as 18.8

For N#CCCn1c(=O)n(-c2cncc3ccccc23)c(=O)c2sc(-c3cc(F)c(F)cc3Cl)cc21 the compound record lists IC50 as 8.26

For COc1cc(-c2cc3[nH]c(=O)n(-c4cncc5ccccc45)c(=O)c3s2)c(Cl)cc1F (single isomer, unassigned) [Example 557] the compound record lists IC50 as 103

For COc1ccc(C#N)c(-c2ccc3c(=O)n(-c4cncc5ccccc45)c(=O)[nH]c3c2)c1 (single isomer, unassigned) [Example 570] the compound record lists IC50 as 1310

For COc1ccc(Cl)c(-c2cc3[nH]c(=O)n(-c4cncc5sc(C(C)(C)O)c(C)c45)c(=O)c3s2)c1 the compound record lists IC50 as 5.27

For COc1cc(-c2cc3c(s2)c(=O)n(-c2cncc(Cl)c2C)c(=O)n3CCC#N)c(Cl)cc1F (single isomer, unassigned) [Example 1033] the compound record lists IC50 as 420

For COc1cc(-c2cc3c(s2)c(=O)n(-c2cncc4cnn(C)c24)c(=O)n3C2CC2C#N)c(Cl)cc1F (stereo not shown) the compound record lists IC50 as 38.5

For COc1cc(-c2cc3c(s2)c(=O)n(-c2cncc4c2n(C)c(=O)n4C)c(=O)n3CCC#N)c(Cl)cc1F the compound record lists IC50 as 8.42

For N#CCCn1c(=O)n(-c2cncc3ccccc23)c(=O)c2sc(-c3ccccc3C#N)cc21 (single isomer, unassigned) [Example 963] the compound record lists IC50 as 7.92

###

molecular target: recombinant SARS-CoV-2 Main protease (Mpro) (Severe acute respiratory syndrome coronavirus 2 (2019-nCoV) (SARS-CoV-2), UniProt P0DTD1); assay: Cov Mpro Biochemical IC50 Assay; conditions: recombinant SARS-CoV-2 Mpro, fluorogenic peptide substrate; read-out: MPro IC50
Endpoint: IC50 (µM)
API: value field is a number in µM; no unit string.

Examples with answers:
{"columns": ["Compound", "Unit Spec", "IC50"],
 "data": [
  ["O=c1[nH]c2cc(-c3cccnc3Cl)sc2c(=O)n1-c1cncc2ccccc12 [Example 22]", "µM", 0.0371],
  ["O=c1[nH]c2cc(-c3ccccc3Cl)ccc2c(=O)n1-c1cncc2ccccc12 (single isomer, unassigned) [Example 105]", "µM", 0.0709],
  ["CC(C)n1cc(-c2cccc(Cl)c2-c2ccc3c(=O)n(-c4cncc5ccccc45)c(=O)[nH]c3c2)c(C(F)(F)F)n1 [Example 282]", "µM", 0.148],
  ["O=c1[nH]c2cc(-c3c(Cl)cccc3CO)sc2c(=O)n1-c1cncc2ccccc12 [Example 235]", "µM", 0.0535],
  ["O=c1[nH]c2cc(-c3ccccc3Cl)ccc2c(=O)n1-c1cncc2ccccc12 (single isomer, unassigned) [Example 104]", "µM", 6.79]
]}

For CN1C(=O)COc2ccc(-c3cccc(Cl)c3-c3ccc4c(=O)n(-c5cncc6ccccc56)c(=O)[nH]c4c3)cc21 [Example 196] the compound record lists IC50 as 0.0174

For O=c1[nH]c2cc(-c3ccccc3Cl)sc2c(=O)n1-c1cncc(C2CCC2)c1 [Example 379] the compound record lists IC50 as 0.436
